experimental system: DGKζ (Homo sapiens, UniProt Q13574)
Construct: His
Sequence (Q13574 whole entry): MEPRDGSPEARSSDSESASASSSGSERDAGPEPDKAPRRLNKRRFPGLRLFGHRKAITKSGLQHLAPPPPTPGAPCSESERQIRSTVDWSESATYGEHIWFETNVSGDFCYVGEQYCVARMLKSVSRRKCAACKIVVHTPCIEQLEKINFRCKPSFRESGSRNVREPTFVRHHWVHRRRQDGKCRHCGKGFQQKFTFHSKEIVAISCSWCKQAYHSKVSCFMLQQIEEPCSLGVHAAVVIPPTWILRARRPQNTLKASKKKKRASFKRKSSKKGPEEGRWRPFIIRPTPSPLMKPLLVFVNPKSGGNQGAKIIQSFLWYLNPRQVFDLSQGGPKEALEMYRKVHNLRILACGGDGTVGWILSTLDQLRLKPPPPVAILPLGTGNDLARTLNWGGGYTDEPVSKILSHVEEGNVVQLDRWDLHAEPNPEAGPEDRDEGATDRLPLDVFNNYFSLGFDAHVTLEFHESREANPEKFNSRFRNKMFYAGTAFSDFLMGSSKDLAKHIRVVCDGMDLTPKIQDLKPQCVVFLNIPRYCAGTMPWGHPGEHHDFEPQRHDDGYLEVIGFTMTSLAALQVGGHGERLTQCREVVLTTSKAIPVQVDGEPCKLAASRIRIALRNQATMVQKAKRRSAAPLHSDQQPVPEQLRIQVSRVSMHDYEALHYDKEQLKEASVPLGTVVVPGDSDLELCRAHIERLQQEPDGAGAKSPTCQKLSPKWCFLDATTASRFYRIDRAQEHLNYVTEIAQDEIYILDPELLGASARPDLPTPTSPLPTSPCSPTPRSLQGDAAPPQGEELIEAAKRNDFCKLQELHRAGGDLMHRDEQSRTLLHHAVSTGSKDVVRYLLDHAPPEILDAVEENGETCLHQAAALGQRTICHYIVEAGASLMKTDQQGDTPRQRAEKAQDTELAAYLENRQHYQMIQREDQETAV
assay summary: In vitro DGKζ inhibition assay (ADP-Glo)
condition details: His-tagged human recombinant enzyme, 0.4 nM DGKζ, 30 μM ATP, 20 μM DLG, 90 minute incubation
Listed compounds paired with reported IC50
metric: IC50

>>> meas_value("F/C(=C\\c1ccc(Oc2cccc(F)c2F)c(C(F)(F)F)c1N1CCCC2(CCNCC2)C1)c1csc(-c2cnsc2)n1 [Example 8]")
"20 to 200 nM"
>>> meas_value("NC[C@@H]1CCCN(c2c(/C=C(\\F)c3ccn(-c4ccnnc4)n3)ccc(Oc3ccccc3F)c2C(F)(F)F)C1 [Example 2]")
"≤ 20 nM"
>>> meas_value("CCN1CCC2(CCCN(c3c(/C=C(\\F)c4csc(-c5ccnnc5)n4)ccc(Oc4ccccc4)c3C(F)(F)F)C2)CC1 [Example 17]")
"≤ 20 nM"
>>> meas_value("F/C(=C\\c1ccc(Oc2cccc(F)c2F)c(C(F)(F)F)c1N1CCCC2(CCN(CC3CC3)CC2)C1)c1csc(-c2ccnnc2)n1 [Example 11]")
"≤ 20 nM"
>>> meas_value("OCCN1CCC2(CCCN(c3c(/C=C(\\F)c4csc(-c5ccnnc5)n4)ccc(Oc4ccccc4)c3C(F)(F)F)C2)CC1 [Example 23]")
"≤ 20 nM"
>>> meas_value("F/C(=C\\c1ccc(Oc2ccccc2)c(C(F)(F)F)c1N1CCOC2(CCNCC2)C1)c1csc(-c2ccnnc2)n1 [Example 5]")
"≤ 20 nM"
>>> meas_value("F/C(=C\\c1ccc(OC2CCCCC2)c(C(F)(F)F)c1N1CCCC2(CCN(CC3CC3)CC2)C1)c1ccn(-c2ccnnc2)n1 [Example 15]")
"≤ 20 nM"
>>> meas_value("CN(c1c(/C=C(\\F)c2csc(-c3ccnnc3)n2)ccc(Oc2ccccc2F)c1C(F)(F)F)[C@H]1CCNC[C@H]1F [Example 4]")
"20 to 200 nM"
>>> meas_value("F/C(=C\\c1ccc(Oc2ccccc2)c(C(F)(F)F)c1N1CCCC2(CCN(CC3CC3)CC2)C1)c1ccn(-c2ccnnc2)n1 [Example 21]")
"≤ 20 nM"
>>> meas_value("CCN1CCC2(CCCN(c3c(/C=C(\\F)c4ccn(-c5ccnnc5)n4)ccc(Oc4ccccc4)c3C(F)(F)F)C2)CC1 [Example 24]")
"≤ 20 nM"
>>> meas_value("F/C(=C\\c1ccc(Oc2ccccc2)c(C(F)(F)F)c1N1CCCC2(CCN(CC3CC3)CC2)C1)c1csc(-c2ccnnc2)n1 [Example 18]")
"≤ 20 nM"
>>> meas_value("F/C(=C\\c1ccc(Oc2ccccn2)c(C(F)(F)F)c1N1CCCC2(CCN(CC3CC3)CC2)C1)c1ccn(-c2ccnnc2)n1 [Example 16]")
"≤ 20 nM"
>>> meas_value("CC(C)(O)CN1CCC2(CCCN(c3c(/C=C(\\F)c4csc(-c5ccnnc5)n4)ccc(Oc4ccccn4)c3C(F)(F)F)C2)CC1 [Example 12]")
"≤ 20 nM"
